assay: Thermal decomposition point (Differential Thermal Analyzer); type: physicochemical; conditions: 20° C./min, onset method
ATTRIBUTE MEASURED: Thermal Decomposition Point

Q: Sample O=[N+]([O-])Nc1c(Cl)c(Cl)cc(Cl)c1Cl [NH3 C8 H17] — what was its Thermal Decomposition Point?
Result: 163 °C

Q: // next record O=[N+]([O-])Nc1c(Cl)c(Cl)cc(Cl)c1Cl [drawing 22]
Result: 143 °C

Q: Query O=[N+]([O-])Nc1c(Cl)c(Cl)cc(Cl)c1Cl [drawing 23] next
Result: 163 °C

Q: Next compound: O=[N+]([O-])Nc1c(Cl)c(Cl)cc(Cl)c1Cl [drawing 25]
Result: 173 °C

Q: Also check O=[N+]([O-])Nc1c(Cl)c(Cl)cc(Cl)c1Cl [NHC18 H37 . (CH2 CH2 O)2 H . (CH2 CH2 O)3 H]
Result: 153-157 °C

Q: Request: O=[N+]([O-])Nc1c(Cl)c(Cl)cc(Cl)c1Cl [NH2 (CH2C6 H5)2]
Result: 183 °C

Q: Same read-out for O=[N+]([O-])Nc1c(Cl)c(Cl)cc(Cl)c1Cl [NH(C2 H5)3] ?
Result: 169 °C

Q: // same read-out, input: O=[N+]([O-])Nc1c(Cl)c(Cl)cc(Cl)c1Cl [NH3 (CH2)3 NHC12 H25 -n]
Result: 184 °C

Q: Try O=[N+]([O-])Nc1c(Cl)c(Cl)cc(Cl)c1Cl [drawing 26] next.
Result: 203 °C

Q: Then this compound: O=[N+]([O-])Nc1c(Cl)c(Cl)cc(Cl)c1Cl [NH3 CH3]
Result: 183 °C

Q: // next record O=[N+]([O-])Nc1c(Cl)c(Cl)cc(Cl)c1Cl [NH3 (CH2)8 CHCH(CH2)7 CH3]
Result: 157 °C

Q: Entry to check: O=[N+]([O-])Nc1c(Cl)c(Cl)cc(Cl)c1Cl [NH3 C16 H33]
Result: 148.5 °C

Q: # repeat for O=[N+]([O-])Nc1c(Cl)c(Cl)cc(Cl)c1Cl [drawing 24]
Result: 138 °C

Q: Try O=[N+]([O-])Nc1c(Cl)c(Cl)cc(Cl)c1Cl [NH2 (C18 H37)2] next.
Result: 168 °C

Q: What about this compound? O=[N+]([O-])Nc1c(Cl)c(Cl)cc(Cl)c1Cl [NH2 (C3 H7)2]
Result: 204 °C

###

What pest or weed control at 500 ppm was measured for each of the following?
test system: Erysiphe graminis f. sp. hordei; test: whole plant or invertebrate; type: in vivo; details: Blumeria graminis, in Hordeum vulgare, foliar, read-out: Barley Powdery Mildew Percent Disease Control
Express your answer in %, writing the number without its unit.

Q: Reported pest or weed control at 500 ppm, molecule O=[N+]([O-])Nc1c(Br)cc(C(F)(F)F)cc1Br [drawing 102] : ____
Result: 100

Q: Can you handle COC(=O)CN(c1c(Cl)c(Cl)cc(Cl)c1Cl)[N+](=O)[O-] [drawing 122] next?
Result: 84

Q: // query: O=[N+]([O-])N(Cc1ccccc1)c1c(Br)cccc1Br
Result: 100

Q: Then CC(=O)N(c1c(Cl)c(Cl)cc(Cl)c1Cl)[N+](=O)[O-] [drawing 121] ?
Result: 100

Q: Now try CN(c1c(Br)cccc1Br)[N+](=O)[O-] .
Result: 89

Q: Another molecule to look at: O=[N+]([O-])Nc1c(Cl)c(Cl)cc(Cl)c1Cl [drawing 87]
Result: 84

Q: Field entry: CCC(=O)Nc1cc(Cl)c(N[N+](=O)[O-])c(Cl)c1 [drawing 108]
Result: 100

Q: Moving on to the next molecule: CCc1cccc(CC)c1N[N+](=O)[O-]
Result: 100

Q: Then O=[N+]([O-])Nc1cc(Cl)c(Cl)c(Cl)c1Cl ?
Result: 84

Q: Now the same for CC(C)N(c1c(Br)cccc1Br)[N+](=O)[O-]
Result: 100

Q: # repeat for O=[N+]([O-])Nc1c(Cl)cccc1Cl [drawing 91]
Result: 100

Q: What do we get for CN(c1c(Cl)c(Cl)cc(Cl)c1Cl)[N+](=O)[O-] ?
Result: 100

Q: Further, for O=[N+]([O-])Nc1ccc(Cl)cc1Cl [drawing 90] ?
Result: 100

Q: Query Cc1cc([N+](=O)[O-])cc(C)c1N[N+](=O)[O-] [drawing 101] next
Result: 100

Q: Can you check CS(=O)(=O)c1ccc(N[N+](=O)[O-])cc1 [drawing 93] next?
Result: 100

Q: Please answer likewise for O=[N+]([O-])Nc1ccc(C(F)(F)F)cc1 [drawing 84]
Result: 96

Q: Next: CC(=O)Nc1cc(Cl)c(N[N+](=O)[O-])c(Cl)c1 [drawing 107]
Result: 84

Q: Input CCN(c1c(Br)cccc1Br)[N+](=O)[O-]
Result: 89

Q: Same again, this time with O=[N+]([O-])Nc1cccc(Br)c1 [drawing 99]
Result: 96

Q: Queued: O=[N+]([O-])Nc1cccc(Cl)c1Cl [drawing 89]
Result: 100

Q: Same question, N#Cc1ccc(N[N+](=O)[O-])c(Br)c1 this time
Result: 100

Q: Now the same for O=[N+]([O-])Nc1cccc(C(F)(F)F)c1
Result: 96

###

test: Thermal decomposition point (Differential Thermal Analyzer); assay type: physicochemical; settings: 20° C./min, onset method
ATTRIBUTE MEASURED: Thermal Decomposition Point (°C)
Provide the reading as a plain figure in °C.

Q: Please give the measured Thermal Decomposition Point for this compound: O=[N+]([O-])Nc1c(Cl)c(Cl)cc(Cl)c1Cl [NH3 CH2 CH2 NH2]
Result: 208

Q: Again, but for O=[N+]([O-])Nc1c(Cl)c(Cl)cc(Cl)c1Cl [NH4]
Result: 178

Q: Next up: O=[N+]([O-])Nc1c(Cl)c(Cl)cc(Cl)c1Cl [NH(CH2 CH2 OH)3]
Result: 150

Q: Same question for O=[N+]([O-])Nc1c(Cl)c(Cl)cc(Cl)c1Cl [NH(C3 H7)3] please.
Result: 154

Q: Now the same for O=[N+]([O-])Nc1c(Cl)c(Cl)cc(Cl)c1Cl [NH(CH3)2 . C6 H5]
Result: 128

Q: Follow-up item: O=[N+]([O-])Nc1c(Cl)c(Cl)cc(Cl)c1Cl [NH3 CH2 CH2 OH]
Result: 203

Q: Repeat with O=[N+]([O-])Nc1c(Cl)c(Cl)cc(Cl)c1Cl [K]
Result: 272

Q: And then O=[N+]([O-])Nc1c(Cl)c(Cl)cc(Cl)c1Cl [NH2 (C4 H9)2] , what is it?
Result: 207

Q: And the next one, O=[N+]([O-])Nc1c(Cl)c(Cl)cc(Cl)c1Cl [drawing 21] ?
Result: 176

Q: Let us now turn to O=[N+]([O-])Nc1c(Cl)c(Cl)cc(Cl)c1Cl [NH3 C12 H25 -n]
Result: 166
